experiment: Primary qHTS for Identification of Small Molecule Inhibitors of Huntingtin Promoter Activity; details: HEK293 HTT promoter firefly luciferase reporter (activity 0% = vehicle and -100% = no light), 24 h; series mostly up to 57.5 µM; note: nearly all actives have a fitted effect of over 50% in size
About 450 (0.94%) of roughly 48,000 compounds were called active. About 19% were inconclusive and are not listed. Calls come from the whole dose curve; as a rule, active = well fitted inhibition curve with a large enough effect; inconclusive = small, poorly fitted or top-dose-only effect; inactive = no such curve, though single readings can be large or run the other way. The sample holds actives, similar compounds and a random draw of the others, so the mix is not that of the screen.
Thanks in advance; please answer with one of these: t for active, f for inactive

In [3]: df
Out[3]:
                                   compound  answer_label
0     CCCNC(=O)c1ccc2c(c1)ncn2-c1ccc(C)cc1C             f
1    CCOC(=O)c1ccc(NC(=O)c2csc3c2CCCCC3)cc1             f
2  CCOC(=O)c1cccc(NS(=O)(=O)c2cc(-c3cnc(C)o3)ccc2OC)c1             f
3  CCNC(=O)CC1C(=O)N(c2ccc(F)cc2)C(=O)N1Cc1ccc(C)cc1 (stereo unspecified)             f
4  COc1ccc(CCNC(=O)c2ccc(CSCc3ccc(C)cc3)o2)cc1OC             t
5  CN1C(=O)C[C@H](C(=O)N[C@@H](Cc2cnc[nH]2)C(=O)N2CCC[C@@H]2C(N)=O)NC1=O             f
6  COc1ccc(-c2cc(NCc3ccc(F)cc3)n3cnnc3n2)cc1             f
7  CC1CCN(c2nc3ccc(C(=O)N4CCN(c5ccccc5)CC4)cc3s2)CC1             t
8  Cc1ccc(CCNC(=O)c2ccc(CS(=O)(=O)Cc3cccc(C)c3)o2)cc1             f
9  CCc1cccc(NC(=O)CN(C)S(=O)(=O)c2ccc3[nH]c4c(c3c2)CCCC4)c1             f

Enquiry: Outcome logged for Cc1ccc(Cl)cc1N1CCN(C(=O)CN2C(=O)COc3ccc(S(=O)(=O)N4CCOCC4)cc32)CC1 in this assay:
Return: f

Enquiry: Which outcome did this test record for the compound CCc1ccc(NC(=O)CN2CCSc3ccc(S(=O)(=O)N4CCCC4)cc32)cc1 ?
Return: t

Enquiry: Recorded call for Cc1ccc(-n2cnc3cc(C(=O)NCCC4=CCCCC4)ccc32)cc1Cl ?
Return: f

* * *

experiment: Primary qHTS for Identification of Small Molecule Inhibitors of Huntingtin Promoter Activity; details: HEK293 HTT promoter firefly luciferase reporter (activity 0% = vehicle and -100% = no light), 24 h; series mostly up to 57.5 µM; note: nearly all actives have a fitted effect of over 50% in size
About 450 (0.94%) of roughly 48,000 compounds were called active. Not shown: some 19% with an inconclusive outcome. The call rests on the fitted dose curve; in most records, active means well fitted inhibition curve with a large enough effect; inconclusive means small, poorly fitted or top-dose-only effect; inactive means no such curve, though single readings can be large or run the other way. The full list was thinned out, with actives kept by preference.
Lab note: assign the record to one of active, inactive

Known results for compounds:
                                   compound  answer_label
0  CCN(CCCNC(=O)c1cc2c(=O)n(CC)c3ccccc3c2s1)Cc1ccccc1      inactive
1  CCc1ccccc1NC(=O)c1ccc2nc(CCc3ccccc3)oc2c1      inactive
2  Cc1ccc(Cl)cc1-n1ncc2c(N3CCC(C(N)=O)CC3)ncnc21      inactive
3  Cc1ccc(-n2ncc3c(N4CCC(C(N)=O)CC4)ncnc32)cc1        active
4  O=C(Cn1cnc2c(oc3ccccc32)c1=O)Nc1ccc(OC(F)(F)F)cc1      inactive
5  CCS(=O)(=O)N1CCc2cc(C(=O)NCc3ccc(C)cc3)ccc21      inactive
6             Cc1cccc(C)c1NC(=O)c1ccc(N)cc1      inactive
7  COc1ccc(NC(=O)CCCN2C(=O)CCn3nc(-c4cn(C)c5ccccc45)cc32)cc1OC      inactive

Enquiry: What call does the record list for CCc1cccc(CC)c1NC(=O)Cn1c(=O)c(-c2cc(C)ccc2NC(C)=O)nc2ccccc21 ?
Return: inactive

Enquiry: Recorded call for Cc1cc(C)cc(Nc2ncnc3onc(-c4ccc(F)cc4)c23)c1 ?
Return: inactive

Enquiry: In this assay, the call recorded for CCN1CCN(c2ncnc3c2cnn3-c2ccc(C)c(C)c2)CC1 was what?
Return: inactive

Enquiry: Per the records of this test, what outcome belongs to Cc1ccc(SCC(=O)Nc2ccc3oc(-c4ccccc4F)nc3c2)cc1 ?
Return: inactive

Enquiry: What call does the record list for COc1ccccc1Cc1nc2ccccc2nc1SCC(=O)N1CCCc2ccccc21 ?
Return: inactive

Enquiry: Hi, do you know how Cc1ccc(NC(=O)c2oc3ccc(S(=O)(=O)N4CCCCC4)cc3c2C)cc1Cl came out in this test?
Return: inactive

Enquiry: Test call for this compound, please: CCc1ccc(CN(Cc2ccco2)C(=O)COc2ccc(Cl)c(C)c2)cc1
Return: inactive

Enquiry: Please let me know the test result on file for CCc1ccc(NC(=O)N2CCN(C(=O)c3nsc4ccccc34)CC2)cc1 .
Return: inactive

* * *

test: Primary qHTS for Identification of Small Molecule Inhibitors of Huntingtin Promoter Activity; settings: HEK293 HTT promoter firefly luciferase reporter (activity 0% = vehicle and -100% = no light), 24 h; series mostly up to 57.5 µM; note: nearly all actives have a fitted effect of over 50% in size
Among all 48,000 compounds or so, about 450 (0.94%) were called active. Another 19% or so got no clear call; they are omitted. Calls follow the shape of the dose curve; as a rule, active = well fitted inhibition curve with a large enough effect; inconclusive = small, poorly fitted or top-dose-only effect; inactive = no such curve, though single readings can be large or run the other way. Many of the other results were omitted from the sample, so actives are more common in it than they were.
Entry note: the call must match one of true (active), false (inactive)

Take a look at these entries with their results.
>>> print(df.to_string())
                                   compound  answer_label
0    CCOc1ccc(OCC)c(Nc2nc3ccccc3n3nnnc23)c1         false
1  CCOc1cc(-c2nnc(SCC(=O)NC3CCCCC3)nc2-c2ccc(OC)c(OCC)c2)ccc1OC         false

Enquiry: Fill in: this test's call for CCc1ccccc1NC(=O)Cn1c(=O)n(CC2CCC(C(=O)NCCc3ccccc3)CC2)c(=O)c2ccccc21 (stereo not given) is ___
Return: false

Enquiry: Recorded test call requested for COc1ccc(NC(=O)c2ccc3nc(CCc4ccccc4)oc3c2)c(OC)c1
Return: false

Enquiry: In this assay, the call recorded for CCCn1c(NCc2ccc(N(CC)CC)cc2)nc2ccccc21 was what?
Return: false

Enquiry: Outcome? CCOc1ccc(C(NC(=O)c2cc(OC)c(OC)c(OC)c2)c2cc(Cl)c3cccnc3c2O)cc1 (stereo not given)
Return: true

Enquiry: Dear colleague, could you share the recorded outcome for COc1ccccc1N1CCN(C(CNC(=O)C(=O)NCc2ccc(C)cc2)c2cccnc2)CC1 (stereo not given) when you have a moment?
Return: true

Enquiry: GET /call?item= CC(=O)c1cccc(Nc2ccc3cc(S(=O)(=O)N4CCC(C)CC4)ccc3n2)c1 returns the recorded outcome of this test.
Return: false

Enquiry: What did the test return for CCc1nn(CC(=O)NCC(C)c2ccccc2)c(=O)c2cc3occc3n12 (stereo not given) ?
Return: false

Enquiry: I would be grateful if you could indicate the recorded call for CCc1ccccc1NC(=O)c1ccc2c(c1)CCN2S(C)(=O)=O .
Return: false

Enquiry: Per the records of this test, what outcome belongs to CCOC(=O)c1cc2c(=O)n3ccccc3nc2n(CC2CCCO2)c1=NC(=O)c1ccc(C(C)(C)C)cc1 (stereo not given) ?
Return: false

Enquiry: Give the logged outcome of this assay for the following compound: Cc1ccc(NC(=O)C(=O)NCC(c2cccnc2)N2CCOCC2)cc1 (stereo not given)
Return: false

Enquiry: Identify the outcome logged in this assay for the compound shown: Cc1ccc(-n2nnnc2CNC(=O)c2ccccc2C)cc1C
Return: false

Enquiry: For CCOC(=O)c1c(C)[nH]c(CCC(=O)NCCCN2CCN(c3cccc(Cl)c3)CC2)c1C , what call appears in the results of this test?
Return: false

Enquiry: What was the test verdict on O=C(NCc1cccnc1)C(=O)NCC(c1cccnc1)N1CCN(c2ccccc2)CC1 (stereo not given) ?
Return: false

Enquiry: What call does the record list for COc1ccc2c(c1)c(=O)c(S(=O)(=O)c1ccc(F)cc1)cn2CC(=O)Nc1ccc(C)cc1C ?
Return: false

Enquiry: Could you please tell me the result logged for COc1ccc(Cn2ccn(Cc3cccc(OC)c3)c(=O)c2=O)cc1 in this assay?
Return: false

Enquiry: What outcome does the record of this test show for Cc1ccc(Nc2ccc3cc(S(=O)(=O)N4CCCCC4)ccc3n2)cc1F ?
Return: false

Enquiry: Hello, I am checking results. What call was entered for CCOC(=O)c1c(C)oc2nc(C)nc(Nc3ccc(CC)cc3)c12 ?
Return: false

Enquiry: What did this assay record as the result for CCOC(=O)c1ccccc1NC(=O)CCc1c(C)nc2c(c1C)c(=O)n(C)c(=O)n2C ?
Return: false

Enquiry: Any idea what this test logged for Cc1ccc2c(=O)c(C(=O)c3ccc(Cl)cc3)cn(CC(=O)NC3CCCCC3)c2n1 ?
Return: false

Enquiry: Assay outcome for CCN(CC)CCNC(=O)CN1N=C(c2ccc(OC)cc2)CCC1=O : what was it?
Return: false

* * *

assay: Primary qHTS for Identification of Small Molecule Inhibitors of Huntingtin Promoter Activity; details: HEK293 HTT promoter firefly luciferase reporter (activity 0% = vehicle and -100% = no light), 24 h; series mostly up to 57.5 µM; note: nearly all actives have a fitted effect of over 50% in size
Screen size: about 48,000 compounds; about 450 (0.94%) were called active. Roughly 19% stayed inconclusive and do not appear here. Many of the other results were omitted from the sample, so actives are more common in it than they were.
MEASURED METRIC: outcome

In [3]: df
Out[3]:
                                   compound  result_value
0  Cc1ccc(-c2nn(CCC(=O)Nc3ccc(Cl)c(Cl)c3)c(=O)c3ccccc23)cc1      inactive
1       N#Cc1ccc(-c2cccs2)nc1SCc1ccc(Br)cc1      inactive
2  COc1cc(-c2noc(-c3ccc(N4CCCC4)c([N+](=O)[O-])c3)n2)cc(OC)c1OC      inactive
3  Cc1ccc(-c2noc(CSc3nnc(-c4ccc(Cl)cc4)n3C)n2)cc1      inactive

Enquiry: Which outcome is reported for this compound? CCOc1ccc2oc(=O)cc(CN3CCN(C(=O)c4ccc(F)cc4)CC3)c2c1
Return: inactive

Enquiry: Recorded outcome for Cc1ccc(CCNC(=O)Cn2c(-c3cccs3)cc3cc(F)ccc32)cc1 , please?
Return: inactive

Enquiry: Suppose we examine the compound O=C(NCc1ccccc1)c1ccc2c(c1)nc1n2CCCCC1 ; what outcome value has been reported?
Return: inactive
